Where do these numbers come from? They come from patent US20080261902A1.

Assay: Effect of pH to solubility of polydatin (Embodiment 12)
Type: physicochemical
Details: deionized water of adjusted pH, pH 9, aqueous buffer, thermodynamic from solid, pH of solvent 9.0; water, room temperature
PROPERTY_MEASURED: solubility at 8 h

Need solubility at 8 h of OCC1OC(Oc2cc(O)cc(/C=C/c3ccc(O)cc3)c2)C(O)C(O)C1O (stereo not shown) , thanks.
< 500 µg/mL

* * *

Experiment: Solubility of polydatin in alcohol-propanediol-water mixed solvent (Embodiment 15)
Assay type: physicochemical
Details: alcohol-propanediol-water mixed solvent, aqueous with cosolvent or surfactant or cyclodextrin, thermodynamic from solid, 60% alcohol water/propanediol 10/3
PROPERTY_MEASURED: solubility at 8 h
Kindly format the answer as number then unit.

Need solubility at 8 h of OCC1OC(Oc2cc(O)cc(/C=C/c3ccc(O)cc3)c2)C(O)C(O)C1O (stereo not shown) , thanks.
93.3 mg/mL
